# Target entity: B-cell lymphoma 6 protein (Homo sapiens, UniProt P41182, C67R/C84N/C8Q)
# Measurement protocol: Inhibition of SMRT2 H1426W mutant peptide binding to N-terminal His6-tagged human BCL6 BTB domain C8Q/C67R/C84N mutant expressed in Escherichia coli BL21 (DE3) preincubated for 30 mins followed by SMRT2 H1426W mutant peptide addition measured after 60 mins by time-resolved fluorescence resonance energy transfer assay

>  <Item smiles>
N#Cc1cnn2c(NC3CC3)ccnc12

>  <IC50>
> 99 µM

$$$$
>  <Item smiles>
N#Cc1cnn2c(Nc3ccc4c(c3)CCC(=O)N4)cc(N3CCC[C@H]3CO)nc12

>  <IC50>
0.37 µM

$$$$
>  <Item smiles>
N#Cc1cnn2c(Nc3ccccc3)cc(N3CCCC3)nc12

>  <IC50>
> 100 µM

$$$$
>  <Item smiles>
N#Cc1cnn2c3cc(nc12)N1C[C@H](C[C@H]1CO)OC/C=C/COc1cc(cc2c1NC(=O)CC2)N3

>  <IC50>
0.0029 µM

$$$$
>  <Item smiles>
N#Cc1cnn2c(Nc3ccc4c(c3)CCC(=O)N4)cc(N3CCCC3)nc12

>  <IC50>
2.9 µM

$$$$
>  <Item smiles>
N#Cc1cnn2c(NC3CC3)cc(N3CCCC3)nc12

>  <IC50>
> 99 µM

$$$$
>  <Item smiles>
N#Cc1cnn2c(Nc3ccc4c(c3)CCC(=O)N4)cc(N3CCC[C@@H]3CO)nc12

>  <IC50>
0.59 µM

$$$$
>  <Item smiles>
N#Cc1cnn2c(Nc3ccc4c(c3)CCC(=O)N4)cc(N3CCC[C@H]3CC(=O)O)nc12

>  <IC50>
0.35 µM

$$$$
